All values here come from the METLIN SMRT retention time set (Domingo-Almenara et al. 2019).

experiment: gradient 5% acetonitrile 3 min, to 50% in 2 min, to 85% in 15 min, held 3 min, 100 µL/min; settings: column: Zorbax Extend-C18 2.1 x 50 mm; eluents: water / acetonitrile, 0.1% formic acid
Below, each entry is listed with its recorded RP-LC retention time.

{"columns": ["COMPOUND", "RP-LC retention time (s)"],
 "data": [
  ["O=c1c2cc(-c3ccc(F)cc3)nn2ccn1CC(O)c1ccc(F)cc1 (stereo unspecified)", 859],
  ["CNC(=O)C1CCCN(c2nc3ncn(CC(=O)NCC4CCCO4)c(=O)c3s2)C1 (stereo unspecified)", 569],
  ["NC(=O)C1CCN(c2ccc3cccc(OCC(=O)NCc4ccco4)c3n2)CC1", 552],
  ["O=C1NC(C(=O)Nc2cccc(Cl)c2)Cn2cccc21 (stereo unspecified)", 721],
  ["C#CCNc1ccc(C(=O)OCC)cc1", 879],
  ["CCc1ccc(NC(=O)Cn2c(C)nc3c(sc4nc(-c5ccccc5)ccc43)c2=O)cc1", 1120],
  ["Cc1nn(-c2ccc(F)cc2)c2c1c(=O)c(C(=O)NCc1cccs1)cn2C", 808],
  ["COc1ccc(C2CC(=O)N(c3ccc(OC)cc3)C(=O)C2)cc1", 864],
  ["Cc1sc2ccn(CC(C)C)c(=O)c2c1C(=O)NCc1ccccc1F", 994],
  ["CC(=O)N1CCc2cc(N3CC(C(=O)NCc4cc(F)cc(F)c4)CC3=O)ccc21 (stereo unspecified)", 690],
  ["Cc1oc(-c2ccc(C(=O)NCCN3CCN(C)CC3)cc2)nc1CSc1ccccc1", 661],
  ["COC(=O)CNC(=O)NCCn1c(-c2ccc(F)cc2)nc2ccccc21", 696],
  ["COc1nn(C)cc1C(=O)Nc1ccc(-c2cn3ccsc3n2)cc1", 575],
  ["COc1ccc(C2(C(=O)N3CCC(Cc4nc(-c5ccccc5)n[nH]4)C3)CC2)cc1 (stereo unspecified)", 734],
  ["CC(=O)N(Cc1nn(C)c2c1CN(S(=O)(=O)c1cccc(F)c1)CC2)c1ccccc1", 796],
  ["COc1ccc2[nH]cc(CCN3CC(C(=O)Nc4nnc(C(F)(F)F)s4)CC3=O)c2c1 (stereo unspecified)", 780]
]}
